# System: BT-549 breast
# Assay summary: NCI tumour cell line growth inhibition, 48 h
Endpoint: TGI (µM)

Molecule: C=C1C(=O)OC2/C=C(/C)C3(O)OC(C)(CC(OC(=O)C(C)C)C12)CC3OC(C)=O (stereo not given)
Endpoint: TGI
Qual: =
Observed value: 22.3

Molecule: c1csc(-c2c3ccc(=[N+]4CCCCC4)cc-3oc3cc(N4CCCCC4)ccc23)c1
Endpoint: TGI
Qual: =
Observed value: 0.32

Molecule: CN1COCc2cc3cc4c(cc3nc21)OCCO4
Endpoint: TGI
Qual: >
Observed value: 100

Molecule: Cc1ccc(S(=O)(=O)NC(=O)NC2=NC(C)(C)N(c3ccc(Cl)c(Cl)c3)C(N)=N2)cc1
Endpoint: TGI
Qual: >
Observed value: 100

Molecule: CC[C@@]1(O)C(=O)OCc2c1cc1n(c2=O)Cc2c-1nc1cc(F)c(C)c3c1c2[C@@H](N)CC3
Endpoint: TGI
Qual: =
Observed value: 0.199

* * *

# Test system: HCT-116 colon
# Assay summary: NCI tumour cell line growth inhibition, 48 h; in the data active = GI50 below about 0.43 µM; inactive = the rest
Classes used: y for active, n for inactive

Molecule: O=C([CH-]C(=O)c1ccccc1)c1ccccc1.O=C([CH-]C(=O)c1ccccc1)c1ccccc1.[O]=[U+2]=[O]
Group: n

Molecule: Nc1nc(N)c2cc(CNc3ccc(C(=O)NC(CC(=O)O)C(=O)O)c(Cl)c3)ccc2n1 (stereo unspecified)
Group: y

Molecule: CN1CCN(c2ccc(Nc3ncc4cc(C#N)c(=O)n(C5CCCC5)c4n3)cc2)CC1
Group: n

Molecule: C=C1CC[C@@H](C(C)C)C[C@@H]2[C@H]([C@H](O)C[C@]2(C)O)[C@@]2(C)CC[C@@H]1O2
Group: n

Molecule: N#Cc1ccc(OC(=O)Nc2ccc(Cl)c(Cl)c2)cc1
Group: n

Molecule: C[C@]12CC[C@@H]3c4ccc(O)c([N+](=O)[O-])c4CC[C@H]3[C@@H]1CC[C@@H]2NS(=O)(=O)c1cccc(Br)c1
Group: n

Molecule: O=C(OCc1ccc2c(Cl)cc(Cl)c(O)c2n1)N1CCN(C(=O)c2cc3cc(F)ccc3[nH]2)CC1
Group: y

Molecule: O=C1C(Cl)=C(Nc2ccccc2O)C(=O)N1Cc1ccccc1
Group: n

Molecule: Cc1cc(C)n(-c2nnc3n2N=C(c2ccc(-c4ccccc4)cc2)CS3)n1
Group: n

Molecule: CCCCCc1ccc(S(=O)(=O)Nc2cc(-c3csc(NC(C)=O)n3)ccc2N2CCN(C)CC2)cc1
Group: n

Molecule: Cn1c(=O)c2c(ncn2CC(=O)Nc2ccc(-c3ccccc3)nn2)n(C)c1=O
Group: n

* * *

# Test system: OVCAR-5 ovarian
# Assay summary: NCI tumour cell line growth inhibition, 48 h
Listed here: items and their measured TGI.

Compound: COC(C(=O)[C@@H](O)[C@@H](C)O)[C@@H]1Cc2cc3cc(O[C@H]4C[C@@H](O[C@H]5C[C@@H](O)[C@H](O)C(C)O5)[C@H](O)C(C)O4)c(C)c(O)c3c(O)c2C(=O)[C@H]1O[C@H]1C[C@@H](O[C@H]2C[C@@H](O[C@H]3C[C@@H](O)[C@H](OC)C(C)O3)[C@@H](O)C(C)O2)[C@H](O)C(C)O1 (stereo partly specified)
Tested target: OVCAR-5 ovarian
TGI: > 33.3 µM
--
Compound: COc1ccccc1N1CCN(CCCNC(=O)c2cc(Cl)c(N)c(Cl)c2)CC1
Tested target: OVCAR-5 ovarian
TGI: > 100 µM
--
Compound: O=C(CNCc1ccccc1)Oc1c(Cl)c(Cl)c(Cl)c(Cl)c1Cl
Tested target: OVCAR-5 ovarian
TGI: > 100 µM
--
Compound: O=C(NCc1ccc(S(=O)(=O)c2cc(F)cc(F)c2)cc1)c1ccc2nccn2c1
Tested target: OVCAR-5 ovarian
TGI: > 100 µM
--
Compound: COC(=O)C1OC(O[C@H]2CC[C@]3(C)[C@H]4CC=C5[C@@H]6CC(C)(C)CC[C@]6(C(=O)OC6OCC(O)C(O)C6OC6OC(C)C(OC7OCC(OC8OCC(O)C(O)C8O)C(O)C7O)C(O)C6O)[C@H](O)C[C@@]5(C)[C@]4(C)CC[C@H]3C2(C)C)C(O)C(O)C1O (stereo partly specified)
Tested target: OVCAR-5 ovarian
TGI: 8.01 µM
--
Compound: O=C(CCc1cccc(O)c1)NCCCNC(=O)CCc1cccc(O)c1
Tested target: OVCAR-5 ovarian
TGI: > 100 µM
